All figures here come from ChEMBL document CHEMBL3885861.

Species on record: Rattus norvegicus
Test: Open TG-GATES - Regimen: Daily Repeat
Assay type: toxicity, organism-based, Sprague-Dawley
Parameters: regimen Daily Repeat, gender Male, age 6 weeks
Conditions: in vivo, po, 300 mg/kg, […], tissue Plasma, route gavage, dose level Middle, time 28 day
measurement_kind: Cl (meq/L)
Write down the numeric answer in meq/L and omit the unit.

Prompt line: Which Cl is reported for this molecule? CCOc1ccc(NC(=O)CC(C)O)cc1 (stereo not given) [BUCETIN]
Response line: 104.8

Prompt line: And what about the molecule CCOC(=O)CCC(=O)O[C@H]1[C@H](O[C@@H]2[C@@H](C)[C@H](O[C@H]3C[C@@](C)(OC)[C@@H](O)[C@H](C)O3)[C@@H](C)C(=O)O[C@H](CC)[C@@](C)(O)[C@H](O)[C@@H](C)C(=O)[C@H](C)C[C@@]2(C)O)O[C@H](C)C[C@@H]1N(C)C [ERYTHROMYCIN ETHYLSUCCINATE] ?
Response line: 106.4

Prompt line: And what about the molecule COC1=CC(=O)C[C@@H](C)[C@]12Oc1c(Cl)c(OC)cc(OC)c1C2=O [GRISEOFULVIN] ?
Response line: 103

Prompt line: And what about the molecule NC(N)=Nc1nc(CSCCC(N)=NS(N)(=O)=O)cs1 [FAMOTIDINE] ?
Response line: 103.4

Prompt line: And what about the molecule COc1ccc2[nH]c([S+]([O-])Cc3ncc(C)c(OC)c3C)nc2c1 (stereo not given) [OMEPRAZOLE] ?
Response line: 101.6

---

Organism: Rattus norvegicus
Test: Open TG-GATES - Regimen: Daily Repeat
Format: toxicity, organism-based, Sprague-Dawley
Parameters: regimen Daily Repeat, gender Male, age 6 weeks
Settings: in vivo, po, 300 mg/kg, […], tissue Plasma, route gavage, dose level Middle, time 7 day
measurement_kind: LDH (IU/L)
Write down the numeric answer in IU/L and omit the unit.

Prompt line: Which LDH is reported for this molecule? NC(N)=Nc1nc(CSCCC(N)=NS(N)(=O)=O)cs1
Response line: 183.4

Prompt line: And what about the molecule CCOC(=O)CCC(=O)O[C@H]1[C@H](O[C@@H]2[C@@H](C)[C@H](O[C@H]3C[C@@](C)(OC)[C@@H](O)[C@H](C)O3)[C@@H](C)C(=O)O[C@H](CC)[C@@](C)(O)[C@H](O)[C@@H](C)C(=O)[C@H](C)C[C@@]2(C)O)O[C@H](C)C[C@@H]1N(C)C [ERYTHROMYCIN ETHYLSUCCINATE] ?
Response line: 185.6

Prompt line: And what about the molecule CCOc1ccc(NC(=O)CC(C)O)cc1 (stereo not given) ?
Response line: 115.2

Prompt line: And what about the molecule COc1ccc2[nH]c([S+]([O-])Cc3ncc(C)c(OC)c3C)nc2c1 (stereo not given) ?
Response line: 248.4

Prompt line: And what about the molecule COC1=CC(=O)C[C@@H](C)[C@]12Oc1c(Cl)c(OC)cc(OC)c1C2=O ?
Response line: 136.6

---

Species on record: Rattus norvegicus
Assay: Open TG-GATES - Regimen: Single
Type: toxicity, organism-based, Sprague-Dawley
Set-up: regimen Single, gender Male, age 6 weeks
Conditions: in vivo, po, 30 mg/kg, 9 h, tissue Blood, route gavage, dose level Middle
measurement_kind: MCHC (%)
Write down the numeric answer in % and omit the unit.

Prompt line: Which MCHC is reported for this compound? CN(C)CCN(Cc1cccs1)c1ccccn1
Response line: 33.5

Prompt line: And what about the compound CN(C)CCCN1c2ccccc2CCc2ccccc21 [IMIPRAMINE] ?
Response line: 32.5

Prompt line: And what about the compound CN(C)CCCN1c2ccccc2CCc2ccc(Cl)cc21 [CLOMIPRAMINE] ?
Response line: 32.6

Prompt line: And what about the compound CC1=C(/C=C/C(C)=C/C=C/C(C)=C/CO)C(C)(C)CCC1 [RETINOL] ?
Response line: 34.5
